Test system: MAP4K5;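 note: KINOMEscan kinase panel screen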
Details: concentration: 1 μM, replicates: in singlicate; n = 1
Quantity Kind: %Inh
Remember to follow the number with its unit.

// sample `O=C(Nc1cccc(-c2nn3ccccc3c2-c2ccnc(Nc3cccc(C(F)(F)F)c3)n2)c1)c1c(F)cccc1F` , its %Inh was 15%

Data point: `c1ccc(Oc2ccc(Nc3ccnc4cc(-c5ccc(CNCCN6CCOCC6)o5)ccc34)cc2)nc1` ; %Inh = 56%

get_value(item= `COc1cc(Nc2nccc(-c3c(-c4cccc(NC(=O)c5c(F)cccc5F)c4)nn4ccccc34)n2)cc(OC)c1OC` , readout=%Inh) returns 70%

# compound `O=C(O)C(F)(F)F.O=C(O)C(F)(F)F.O=c1[nH]ccc2nc(N[C@@H]3CCCNC3)nc(Nc3ccc(S(=O)(=O)N4CCOCC4)cc3)c12` ; its %Inh = 99.8%
